assay: Antiviral activity against HIV1 IRLL98 in MT4 cells by MTT assay
RECORDED METRIC: EC50

Cc1c(Cc2c(F)cccc2F)nc(Sc2ccc(F)cc2F)[nH]c1=O    25.8 µM
COc1ccc(Sc2nc(Cc3c(Cl)cccc3Cl)c(C)c(=O)[nH]2)cn1    8.68 µM
COc1ccc(Sc2nc(Cc3c(Cl)cccc3Cl)c(C)c(=O)[nH]2)cc1    > 61.4 µM

Query: Can you look up the measured EC50 of Cc1c(Cc2c(Cl)cccc2Cl)nc(Sc2ccccc2)[nH]c1=O for me?
Response: 4.91 µM

----------
Measured EC50, listed per entry for reference.
assay: Antiviral activity against wild type HIV1 NL4-3 in MT4 cells by MTT assay

# count of solved cases: 3
Cc1c(Cc2c(Cl)cccc2Cl)nc(Sc2ccc(F)cc2F)[nH]c1=O    3360 nM
Cc1c(Cc2c(F)cccc2F)nc(Sc2ccccc2)[nH]c1=O    90 nM
COc1ccc(Sc2nc(Cc3c(Cl)cccc3Cl)c(C)c(=O)[nH]2)cn1    2720 nM

Query: Form field: reported EC50 of Cc1c(Cc2c(Cl)cccc2Cl)nc(Sc2ccc(C#N)cc2)[nH]c1=O
Response: 2490 nM

Query: Could you share which EC50 value was measured for Cc1c(Cc2c(F)cccc2F)nc(Sc2ccc(F)cc2F)[nH]c1=O ?
Response: 310 nM

Query: For the compound Cc1c(Cc2c(Cl)cccc2Cl)nc(Sc2ccccc2)[nH]c1=O , what EC50 is on record?
Response: 1800 nM

Query: Item under review: COc1ccc(Sc2nc(Cc3c(F)cccc3F)c(C)c(=O)[nH]2)cc1 . Reported EC50?
Response: 670 nM

Query: Fill in: EC50 of COc1ccc(Sc2nc(Cc3c(Cl)cccc3Cl)c(C)c(=O)[nH]2)cc1 is ___
Response: 26500 nM

Query: Name the reported EC50 value associated with the compound Cc1c(Cc2c(F)cccc2F)nc(Sc2ccc(Cl)cc2)[nH]c1=O
Response: 100 nM
